target: HisAviTEV-hSTING (139-342) human wild-type protein (Homo sapiens, UniProt Q86WV6, H232R); construct: made in house; host or cells: E. coli Rosetta 2 (DE3), co-expressed with BirA (1-321); test: Protein thermal shift assay, STING C-terminal binding domain protein; settings: test compound final concentration 0.5 mM
Sequence (Q86WV6 with tags, fused parts or gaps H232R): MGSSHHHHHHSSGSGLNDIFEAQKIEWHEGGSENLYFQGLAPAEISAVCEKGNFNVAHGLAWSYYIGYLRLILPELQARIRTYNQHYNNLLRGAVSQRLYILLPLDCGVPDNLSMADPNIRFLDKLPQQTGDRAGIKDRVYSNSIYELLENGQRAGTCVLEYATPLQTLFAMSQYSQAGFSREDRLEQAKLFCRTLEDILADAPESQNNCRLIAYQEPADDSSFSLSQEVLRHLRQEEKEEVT
Assign class by ΔTm at 500 µM: not lower than 10 °C means Y; lower than 10 °C means N.

Some solved cases for reference:
[[record]]
molecule = "Nc1ncnc2c1ncn2[C@@H]1O[C@@H]2COP(=O)(S)O[C@H]3[C@@H](O)[C@H](n4cc5c6c(ncnc64)NCCC5)O[C@@H]3COP(=O)(S)O[C@@H]1[C@@H]2O (single isomer, unassigned) [1a]"
class_name = "N"

[[record]]
molecule = "O=c1c2ncn([C@@H]3O[C@@H]4COP(=O)(S)O[C@H]5[C@@H](F)[C@H](n6cc7c8c(ncnc86)NCCC7)O[C@@H]5COP(=O)(O)O[C@@H]3[C@@H]4O)c2ncn1CCO (some centres unmarked) [53a]"
class_name = "N"

[[record]]
molecule = "O=c1c2ncn([C@@H]3O[C@@H]4COP(=O)(O)O[C@H]5[C@@H](F)[C@H](n6cc7c8c(ncnc86)NCCC7)O[C@@H]5COP(=O)(O)O[C@@H]3[C@@H]4O)c2ncn1CCO [compound 54]"
class_name = "N"


Req: # check: ΔTm at 500 µM of Nc1nc(CO)nc2c1ncn2[C@@H]1O[C@@H]2COP(=O)(S)O[C@H]3[C@@H](O)[C@H](n4cc5c6c(ncnc64)NCCC5)O[C@@H]3COP(=O)(S)O[C@@H]1[C@@H]2O (single isomer, unassigned) [12a] is greater than or equal to 10 °C
Resp: N

Req: # check: ΔTm at 500 µM of O=c1[nH]cnc2c1ncn2[C@@H]1O[C@@H]2COP(=O)(S)O[C@H]3[C@@H](O)[C@H](n4cc5c6c(ncnc64)NCCC5)O[C@@H]3COP(=O)(S)O[C@@H]1[C@@H]2O (single isomer, unassigned) [25a] is greater than or equal to 10 °C
Resp: Y

Values from patent US12370263B2
